The reported numbers originate from ChEMBL document CHEMBL3988442.

System: Wolbachia pipientis
test_summary: Anti-Wolbachia Cell-Based Screen
Format: functional
Parameters: scale not given: in the data most compounds retested in dose-response had high values
test_settings: 5 µM
In all, about 48,000 compounds went through this assay and about 13,000 (27%) showed an effect of 50% or more. The list shows a part of the results.
Catalogue of Percent Effect values
Answer format: numeric, % implied, no suffix.

Cc1cc(C)nc(N2CCOC(C)(C(=O)N(C)C)C2)n1 (stereo unspecified) :: 205.4
CC(C)N(Cc1ccc(C#N)cc1)Cc1nnsc1Cl :: -0.2197

Consider the compound shown here: Cc1cc(C)nc(N2CC[C@@]3(O)CCN(S(=O)(=O)N(C)C)C[C@H]3C2)n1 What is its recorded Percent Effect?
-0.4533

Also need Cc1nc(N2CCOCC2)nc(C)c1NC(=O)Cc1ccc(Cl)cc1 , thanks.
-11.2

Also need CCCS(=O)(=O)N1CCOC2(CCCN(c3ccc(C)nn3)C2)C1 (stereo unspecified) , thanks.
6.152

Also need CC(C)=CCC1(C(=O)O)CCCN(c2cc(N)ncn2)C1 (stereo unspecified) , thanks.
-4.514
